Reference source for all entries: patent US20260193315A1

- EXPERIMENTAL_TARGET: 4-1BB (coated on ELISA plate) (UniProt Q07011 24-186, limits assumed)
- METHOD_SUMMARY: ELISA, binding/expression ratio relative to WT
MEASURE: Binding (vs wt)

Sample answers from the record:
• 4C2 (ligand, also called 4-1BBL variant 4C2 (phagemid clone, bacterial supernatant)) 4-1BBL variant: ACPWAVSGARASPGSAASPRLREGPELSPDDPAGLLDLRQGMFAQLVAQNVLLIDGPLSWYPDPGLAGVSLTGGLSYKEDTKELVVAKAGVYYVFFQLELRRVVAGRGSGSVSLALHLQPLRSAAGAAALALTVDLPPASSEARNSAFGFQGRLLHLSAGQRLGVHLHTEARARHAWQFTQGATVLGLFRVTPEIPAGLPSPRSE = 0.38
• 1D2 (ligand, also called 4-1BBL variant 1D2 (phagemid clone, bacterial supernatant)) 4-1BBL variant: ACPWAVSGARASPGSAASPRLREGPELSPDDPAGLLDLRQGMFAQLVAQNVLLIDGPLSWYEDPGLAGVSLTGGLSYKEDTKELVVAKAGVYYVFFQLELRRVVAGTGSGSVSLALHLQPLRSAAGAAALALTVDLPPASSEARNSAFGFQGRLLHLSAGQRLGVHLHTEARARHALQLTQGATVLGLFRVTPEIPAGLPSPRSE = 0.38

Q. Which value of Binding (vs wt) has been reported for 4E10 (ligand, also called 4-1BBL variant 4E10 (phagemid clone, bacterial supernatant)) 4-1BBL variant: ACPWAVSGARASPGSAASPRLREGPELSPDDPAGLLDLRQGMFAQLVAQNVLLIDGPLSWYPDPGLAGVSLTGGLSYKEDTKELVVAKAGVYYVFFQLELRRVVAREGSGSVSLALHLQPLRSAAGAAALALTVDLPPASSEARNSAFGFQGRLLHLSAGQRLGVHLHTEARARHAMQLTQGATVLGLFRVTPEIPAGLPSPRSE in the records?
A. 0.6
